assay.overview: Metabolic stability in mouse plasma assessed as compound remaining at 5 uM and measured after 120 mins by UPLC-MS/MS analysis
Assay type: ADME, cell-free
setup.conditions: read-out: Stability
readout.kind: remaining at 2 h, 5 µM (%)

{"smiles.str": "CC1(C)CCc2c(O)cc(/C=C/c3cc(O)c4c(c3)C[C@@H]3C(C)(C)[C@H](O)CC[C@@]3(C)O4)cc2O1", "result.unit": "%", "remaining at 2 h, 5 µM": 100}

P: CC(C)=CCc1c(O)cc(/C=C/c2cc(O)c3c(c2)C[C@@H]2C(C)(C)[C@H](O)CC[C@@]2(C)O3)cc1O
Q: CC1(C)CCc2c(O)cc(/C=C/c3cc(O)c4c(c3)C[C@@H]3C(C)(C)[C@H](OC=O)CC[C@@]3(C)O4)cc2O1
Query: For this pair, P and Q , which shows a numerically higher remaining at 2 h, 5 µM? To answer, give the label that identifies your chosen option.
Result: P
(P: 100%, Q: 20.2%)

* * *

assay.overview: Metabolic stability in mouse liver microsomes assessed as compound remaining at 2.5 uM and measured after 45 mins in absence of NADPH by LC-MS/MS analysis
Type: ADME, Microsome
setup.conditions: read-out: Stability
readout.kind: remaining at 0.75 h, 2.5 µM (%)

{"smiles.str": "CC(C)=CCc1c(O)cc(/C=C/c2cc(O)c3c(c2)C[C@@H]2C(C)(C)[C@H](O)CC[C@@]2(C)O3)cc1O", "observed.value": 100}

I: CC1(C)CCc2c(O)cc(/C=C/c3cc(O)c4c(c3)C[C@@H]3C(C)(C)[C@H](OC=O)CC[C@@]3(C)O4)cc2O1
II: CC1(C)CCc2c(O)cc(/C=C/c3cc(O)c4c(c3)C[C@@H]3C(C)(C)[C@H](O)CC[C@@]3(C)O4)cc2O1
Query: For this pair, I and II , which shows a numerically higher remaining at 0.75 h, 2.5 µM? To answer, give the label that identifies your chosen option.
Result: II

* * *

target.system: Oxysterol-binding protein 1 (Homo sapiens)
Sequence (P22059 whole entry): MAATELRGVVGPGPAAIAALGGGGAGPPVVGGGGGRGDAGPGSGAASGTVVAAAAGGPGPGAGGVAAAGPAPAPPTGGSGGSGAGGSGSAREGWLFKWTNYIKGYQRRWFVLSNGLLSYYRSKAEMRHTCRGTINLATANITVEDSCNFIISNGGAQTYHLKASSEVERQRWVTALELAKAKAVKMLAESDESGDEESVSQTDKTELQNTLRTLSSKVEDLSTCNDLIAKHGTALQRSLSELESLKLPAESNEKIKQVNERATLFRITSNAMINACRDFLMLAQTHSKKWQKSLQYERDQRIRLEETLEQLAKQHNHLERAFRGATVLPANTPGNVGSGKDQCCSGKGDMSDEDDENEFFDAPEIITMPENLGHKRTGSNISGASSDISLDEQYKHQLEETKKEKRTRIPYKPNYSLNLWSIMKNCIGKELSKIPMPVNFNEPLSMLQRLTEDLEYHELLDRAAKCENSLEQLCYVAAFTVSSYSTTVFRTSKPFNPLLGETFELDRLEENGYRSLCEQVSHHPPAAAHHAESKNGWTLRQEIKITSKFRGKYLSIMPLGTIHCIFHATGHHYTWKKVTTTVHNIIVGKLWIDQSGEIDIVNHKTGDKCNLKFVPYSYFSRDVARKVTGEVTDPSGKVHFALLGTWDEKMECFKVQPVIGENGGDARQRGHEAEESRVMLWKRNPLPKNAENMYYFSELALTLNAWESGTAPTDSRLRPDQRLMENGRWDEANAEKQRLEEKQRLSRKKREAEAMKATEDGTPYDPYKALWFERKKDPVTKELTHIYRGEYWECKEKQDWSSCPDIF
pKi: −log10 of the molar value.
readout.kind: pKi

{"compound": "COc1cc(/C=C/c2cc(O)c3c(c2)OC(C)(C)CC3)cc2c1O[C@]1(C)CC[C@@H](OC=O)C(C)(C)[C@H]1C2", "target.system": "Oxysterol-binding protein 1 (Homo sapiens)", "pKi": 6.28}

a: C#CCOc1cc(/C=C/c2cc(O)c(CC=C(C)C)c(O)c2)cc2c1O[C@]1(C)CC[C@@H](O)C(C)(C)[C@H]1C2
b: COc1cc(/C=C/c2cc(O)c3c(c2)OC(C)(C)C(O)C3)cc2c1O[C@]1(C)C[C@@H](O)[C@@H](O)C(C)(C)[C@H]1C2 (stereo partly specified)
c: CC1(C)CCc2c(O)cc(/C=C/c3cc(O)c4c(c3)C[C@@H]3C(C)(C)[C@H](OC=O)CC[C@@]3(C)O4)cc2O1
d: C=CCc1c(/C=C/c2cc(O)c(CC=C(C)C)c(O)c2)cc2c(c1O)O[C@]1(C)CC[C@@H](O)C(C)(C)[C@H]1C2
Query: Arrange the 4 entries by pKi so the values rise. Write out the labels following the order that was asked for.
Result: c, b, d, a

* * *

assay.overview: Metabolic stability in mouse plasma assessed as half life at 5 uM and measured upto 120 mins by UPLC-MS/MS analysis
Format: ADME, cell-free
readout.kind: half-life at 5 µM (min)
State just the number; it will be interpreted in min.

Query: Endpoint output: half-life at 5 µM of `CC1(C)CCc2c(O)cc(/C=C/c3cc(O)c4c(c3)C[C@@H]3C(C)(C)[C@H](OC=O)CC[C@@]3(C)O4)cc2O1` . Value?
Result: 51

* * *

assay.overview: Metabolic stability in mouse liver microsomes assessed as compound remaining at 2.5 uM and measured after 45 mins in presence of NADPH by LC-MS/MS analysis
Format: ADME, Microsome
setup.conditions: read-out: Stability
readout.kind: remaining at 0.75 h, 2.5 µM (%)

a: CC(C)=CCc1c(O)cc(/C=C/c2cc(O)c3c(c2)C[C@@H]2C(C)(C)[C@H](O)CC[C@@]2(C)O3)cc1O [SCHWEINFURTHIN G]
b: CC1(C)CCc2c(O)cc(/C=C/c3cc(O)c4c(c3)C[C@@H]3C(C)(C)[C@H](OC=O)CC[C@@]3(C)O4)cc2O1
c: CC1(C)CCc2c(O)cc(/C=C/c3cc(O)c4c(c3)C[C@@H]3C(C)(C)[C@H](O)CC[C@@]3(C)O4)cc2O1
Query: Order the records so the highest remaining at 0.75 h, 2.5 µM appears first and the lowest last. Write out the labels following the order that was asked for.
Result: c, a, b
(c: 48.6%, a: 23%, b: 5.3%)

* * *

assay.overview: Metabolic stability in mouse liver microsomes assessed as intrinsic clearance at 2.5 uM and measured upto 45 mins in presence of NADPH by LC-MS/MS analysis
Assay type: ADME, Microsome
setup.conditions: read-out: CLH
readout.kind: microsomal CLint at 2.5 µM (µL/min/mg)

{"compound": "CC1(C)CCc2c(O)cc(/C=C/c3cc(O)c4c(c3)C[C@@H]3C(C)(C)[C@H](OC=O)CC[C@@]3(C)O4)cc2O1", "microsomal CLint at 2.5 µM / µL/min/mg": 120}

a: CC1(C)CCc2c(O)cc(/C=C/c3cc(O)c4c(c3)C[C@@H]3C(C)(C)[C@H](O)CC[C@@]3(C)O4)cc2O1
b: CC(C)=CCc1c(O)cc(/C=C/c2cc(O)c3c(c2)C[C@@H]2C(C)(C)[C@H](O)CC[C@@]2(C)O3)cc1O [SCHWEINFURTHIN G]
Query: Lab log: flag the item ( a or b ) with the smaller microsomal CLint at 2.5 µM figure. To answer, give the label that identifies your chosen option.
Result: a
(a: 32 µL/min/mg, b: 90 µL/min/mg)

* * *

Tested on: A549
assay.overview: Antiproliferative activity against human A549 cells assessed as inhibition of cell proliferation incubated for 72 hrs by CellTiter-Glo luminescent assay
Format: functional, cell-based
setup.conditions: A549, 72 h
pIC50: −log10 of the molar value.
readout.kind: pIC50

1: CC1(C)CCc2c(O)cc(CCc3cc(O)c4c(c3)C[C@@H]3C(C)(C)[C@H](OC=O)CC[C@@]3(C)O4)cc2O1
2: CC1(C)CCc2c(O)cc(/C=C/c3cc(O)c4c(c3)C[C@@H]3C(C)(C)[C@H](O)CC[C@@]3(C)O4)cc2O1
3: COc1cc(/C=C/c2cc(O)c3c(c2)OC(C)(C)C(O)C3)cc2c1O[C@]1(C)C[C@@H](O)[C@@H](O)C(C)(C)[C@H]1C2 (stereo partly specified)
4: COc1cc(/C=C/c2cc(O)c(CC=C(C)C)c(O)c2)cc2c1O[C@@]1(C)[C@H](C2)C(C)(C)[C@H](O)C[C@@H]1O
Query: Would you mind ranking these compounds by ascending pIC50? Write out the labels following the order that was asked for.
Result: 1, 3, 4, 2

P: COc1cc(/C=C/c2cc(O)c3c(c2)OC(C)(C)CC3)cc2c1O[C@]1(C)C[C@@H](O)[C@@H](OC=O)C(C)(C)[C@H]1C2
Q: CC1(C)CCc2c(O)cc(/C=C/c3cc(O)c4c(c3)C[C@@H]3C(C)(C)[C@H](OC=O)CC[C@@]3(C)O4)cc2O1
Query: Lab log: flag the item ( P or Q ) with the smaller pIC50 figure. To answer, give the label that identifies your chosen option.
Result: P

These entries and their values trace back to ChEMBL document CHEMBL5370602.
